Origin of values: the supplement of paper PMC10567573

B1: APBB1IP (parent)
chain: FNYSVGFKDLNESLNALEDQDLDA

# Variants of: B1
# procedure.details: protein stability index of a GFP-peptide fusion (GPS, HEK-293T) (PSI 1-6); higher = more stable;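 also: lentivirally expressed fusions sorted by FACS into six bins by GFP to DsRed ratio, PSI derived from sequencing read proportions per bin multiplied by bin number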
# study.conditions: c terminus: a fixed tail appended
Label 1 (yes) when protein stability index is at or above 4; anything below gets 0 (no).

INPUT: Can L10M be said to have protein stability index at or above 4?
OUTPUT: 1 (yes)

INPUT: Can D21R be said to have protein stability index at or above 4?
OUTPUT: 0 (no)

INPUT: Can S13A be said to have protein stability index at or above 4?
OUTPUT: 1 (yes)

INPUT: Can Q20H be said to have protein stability index at or above 4?
OUTPUT: 1 (yes)

INPUT: Can S4V be said to have protein stability index at or above 4?
OUTPUT: 0 (no)

INPUT: Can S4M be said to have protein stability index at or above 4?
OUTPUT: 1 (yes)

INPUT: Can A24T be said to have protein stability index at or above 4?
OUTPUT: 1 (yes)

INPUT: Can D23Y be said to have protein stability index at or above 4?
OUTPUT: 0 (no)

INPUT: Can S13C be said to have protein stability index at or above 4?
OUTPUT: 1 (yes)

INPUT: Can F1M be said to have protein stability index at or above 4?
OUTPUT: 1 (yes)

INPUT: Can L17E be said to have protein stability index at or above 4?
OUTPUT: 1 (yes)

INPUT: Can D19S be said to have protein stability index at or above 4?
OUTPUT: 0 (no)

INPUT: Can L17K be said to have protein stability index at or above 4?
OUTPUT: 1 (yes)

INPUT: Can S13G be said to have protein stability index at or above 4?
OUTPUT: 1 (yes)

INPUT: Can A16E be said to have protein stability index at or above 4?
OUTPUT: 1 (yes)

INPUT: Can F7L be said to have protein stability index at or above 4?
OUTPUT: 1 (yes)

INPUT: Can A24R be said to have protein stability index at or above 4?
OUTPUT: 0 (no)

INPUT: Can A16H be said to have protein stability index at or above 4?
OUTPUT: 1 (yes)

INPUT: Can V5S be said to have protein stability index at or above 4?
OUTPUT: 1 (yes)

INPUT: Can S13M be said to have protein stability index at or above 4?
OUTPUT: 0 (no)

INPUT: Can D23M be said to have protein stability index at or above 4?
OUTPUT: 0 (no)

INPUT: Can L10G be said to have protein stability index at or above 4?
OUTPUT: 1 (yes)

INPUT: Can S13V be said to have protein stability index at or above 4?
OUTPUT: 0 (no)

INPUT: Can A24P be said to have protein stability index at or above 4?
OUTPUT: 1 (yes)

INPUT: Can L22G be said to have protein stability index at or above 4?
OUTPUT: 1 (yes)

INPUT: Can F1Q be said to have protein stability index at or above 4?
OUTPUT: 1 (yes)

INPUT: Can Q20M be said to have protein stability index at or above 4?
OUTPUT: 0 (no)

INPUT: Can A16D be said to have protein stability index at or above 4?
OUTPUT: 1 (yes)

INPUT: Can E18A be said to have protein stability index at or above 4?
OUTPUT: 0 (no)

INPUT: Can L17M be said to have protein stability index at or above 4?
OUTPUT: 1 (yes)

INPUT: Can F7Y be said to have protein stability index at or above 4?
OUTPUT: 1 (yes)

INPUT: Can S4W be said to have protein stability index at or above 4?
OUTPUT: 0 (no)

INPUT: Can N15Q be said to have protein stability index at or above 4?
OUTPUT: 1 (yes)

INPUT: Can L10Y be said to have protein stability index at or above 4?
OUTPUT: 1 (yes)

INPUT: Can E18R be said to have protein stability index at or above 4?
OUTPUT: 0 (no)

INPUT: Can N15M be said to have protein stability index at or above 4?
OUTPUT: 1 (yes)

INPUT: Can K8F be said to have protein stability index at or above 4?
OUTPUT: 0 (no)

INPUT: Can E12Y be said to have protein stability index at or above 4?
OUTPUT: 0 (no)

INPUT: Can E12W be said to have protein stability index at or above 4?
OUTPUT: 0 (no)

INPUT: Can L14G be said to have protein stability index at or above 4?
OUTPUT: 1 (yes)

INPUT: Can L17V be said to have protein stability index at or above 4?
OUTPUT: 1 (yes)

INPUT: Can K8H be said to have protein stability index at or above 4?
OUTPUT: 0 (no)

INPUT: Can L17Q be said to have protein stability index at or above 4?
OUTPUT: 1 (yes)

INPUT: Can N2Y be said to have protein stability index at or above 4?
OUTPUT: 0 (no)

INPUT: Can N15P be said to have protein stability index at or above 4?
OUTPUT: 1 (yes)

INPUT: Can N2Q be said to have protein stability index at or above 4?
OUTPUT: 0 (no)

INPUT: Can Y3K be said to have protein stability index at or above 4?
OUTPUT: 1 (yes)

INPUT: Can D21M be said to have protein stability index at or above 4?
OUTPUT: 0 (no)

INPUT: Can E12A be said to have protein stability index at or above 4?
OUTPUT: 0 (no)

INPUT: Can Y3M be said to have protein stability index at or above 4?
OUTPUT: 1 (yes)

INPUT: Can S13F be said to have protein stability index at or above 4?
OUTPUT: 0 (no)

INPUT: Can A16P be said to have protein stability index at or above 4?
OUTPUT: 1 (yes)

INPUT: Can F1R be said to have protein stability index at or above 4?
OUTPUT: 1 (yes)

INPUT: Can N11P be said to have protein stability index at or above 4?
OUTPUT: 1 (yes)

INPUT: Can A24H be said to have protein stability index at or above 4?
OUTPUT: 1 (yes)

INPUT: Can Y3I be said to have protein stability index at or above 4?
OUTPUT: 1 (yes)

INPUT: Can N2W be said to have protein stability index at or above 4?
OUTPUT: 0 (no)

INPUT: Can D21E be said to have protein stability index at or above 4?
OUTPUT: 1 (yes)

INPUT: Can V5F be said to have protein stability index at or above 4?
OUTPUT: 1 (yes)

INPUT: Can S13H be said to have protein stability index at or above 4?
OUTPUT: 1 (yes)

INPUT: Can L17N be said to have protein stability index at or above 4?
OUTPUT: 1 (yes)

INPUT: Can N2L be said to have protein stability index at or above 4?
OUTPUT: 0 (no)

INPUT: Can L22N be said to have protein stability index at or above 4?
OUTPUT: 1 (yes)

INPUT: Can E18L be said to have protein stability index at or above 4?
OUTPUT: 0 (no)

INPUT: Can N2D be said to have protein stability index at or above 4?
OUTPUT: 1 (yes)

INPUT: Can K8G be said to have protein stability index at or above 4?
OUTPUT: 1 (yes)
